Target: CDK1/Cyclin B1 (Homo sapiens)
Construct: GST
Sequence (P06493 whole entry): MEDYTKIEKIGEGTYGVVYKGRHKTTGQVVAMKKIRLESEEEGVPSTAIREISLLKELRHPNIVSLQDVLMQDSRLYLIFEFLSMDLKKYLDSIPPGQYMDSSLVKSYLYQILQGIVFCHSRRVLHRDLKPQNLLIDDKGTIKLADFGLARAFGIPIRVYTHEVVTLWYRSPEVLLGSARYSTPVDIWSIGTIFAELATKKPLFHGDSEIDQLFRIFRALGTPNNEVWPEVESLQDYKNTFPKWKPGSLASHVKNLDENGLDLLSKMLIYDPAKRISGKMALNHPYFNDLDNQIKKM
Sequence (P14635 whole entry partner): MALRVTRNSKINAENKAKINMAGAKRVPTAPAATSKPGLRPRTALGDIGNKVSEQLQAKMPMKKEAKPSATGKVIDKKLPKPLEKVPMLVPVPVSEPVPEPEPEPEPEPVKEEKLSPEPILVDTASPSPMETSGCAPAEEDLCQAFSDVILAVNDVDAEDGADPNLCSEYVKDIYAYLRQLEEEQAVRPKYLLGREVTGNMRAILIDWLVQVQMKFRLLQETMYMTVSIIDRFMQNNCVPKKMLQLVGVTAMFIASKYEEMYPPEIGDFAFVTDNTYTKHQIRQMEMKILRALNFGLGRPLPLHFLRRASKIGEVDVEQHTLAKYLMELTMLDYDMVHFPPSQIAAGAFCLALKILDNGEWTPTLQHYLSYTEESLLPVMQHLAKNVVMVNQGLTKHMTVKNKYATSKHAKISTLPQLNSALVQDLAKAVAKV
Test: CDK1/Cyclin B1 enzymatic phosphorylation assay (Caliper mobility shift)
Settings: read-out: Enzyme CDK1/cyclin B1 IC50
// assign YES if IC50 falls strictly below 300 nM, else NO (ties count as NO)

molecule=C[C@H](C1CCOCC1)n1ncc2ncc(Nc3cc(C4COC4)[nH]n3)nc21 group=NO
molecule=Cc1nn(CC2CCOCC2)c2nc(Nc3cc(C(C)C)[nH]n3)cnc12 group=NO
molecule="CC(C)c1cc(Nc2cnc3cnn(C[C@H]4CCCOC4)c3n2)n[nH]1 (single isomer, unassigned)" group=YES
molecule=Cc1nc2cnn(CC3CCOCC3)c2nc1Nc1cc(C(C)C)[nH]n1 group=NO
molecule=CC(C)c1cc(Nc2cnc3cnn(CC4CCOCC4)c3n2)n[nH]1 group=YES
molecule=C[C@@H](c1cccnc1F)n1ncc2ncc(Nc3cc(C#N)[nH]n3)nc21 group=NO
molecule=CC(=O)N1CCC(n2ncc3ncc(Nc4cc(C(C)C)[nH]n4)nc32)CC1 group=YES
molecule=C[C@@H](C1CCOCC1)n1ncc2ncc(Nc3cc(C4COC4)[nH]n3)nc21 group=NO
molecule=Cc1cc(Nc2cnc3cnn(Cc4cccnc4)c3n2)n[nH]1 group=NO

----------
The following compounds are shown together with reported pIC50 values.
Target: CDK2/Cyclin E (Homo sapiens, UniProt P24941)
Experiment: CDK2/Cyclin E enzymatic phosphorylation assay (Caliper mobility shift); note: 1.0 mM ATP or ATP Km
Settings: read-out: Enzyme CDK2/cyclin E IC50
pIC50: −log10 of the molar value.
measured-parameter: pIC50

compound="CCc1cc(Nc2cnc3cnn(CC4CCOCC4)c3n2)n[nH]1 [Example 37]" measured_parameter=pIC50 recorded_value=8.27
compound="CC(C)c1cc(Nc2cnc3cnn(CCCO)c3n2)n[nH]1 [Example 1]" measured_parameter=pIC50 recorded_value=7.67
compound="C[C@@H](c1cccnc1)n1ncc2ncc(Nc3cc(C4CC4)[nH]n3)nc21 [Example 31]" measured_parameter=pIC50 recorded_value=10.00

----------
Target: CDK2/Cyclin E (Homo sapiens, UniProt P24941)
Test: CDK2/Cyclin E enzymatic phosphorylation assay (Caliper mobility shift); note: 1.0 mM ATP or ATP Km
Conditions: read-out: Enzyme CDK2/cyclin E IC50
pIC50: −log10 of the molar value.
The following compounds are shown together with reported pIC50 values.
measured-parameter: pIC50

compound=Cc1nn(Cc2cccnc2)c2nc(Nc3cc(C4COC4)[nH]n3)cnc12 recorded_value=7.44
compound="CC(C)c1cc(Nc2cnc3cnn(C[C@H]4CCOC4)c3n2)n[nH]1 (single isomer, unassigned)" recorded_value=8.42
compound=CC(C)c1cc(Nc2cnc3cnn([C@H](C)c4cccnc4)c3n2)n[nH]1 recorded_value=9.52
compound=CC(C)c1cc(Nc2cnc3cnn(CC4CCN(C)CC4)c3n2)n[nH]1 recorded_value=7.25
compound=Cc1cc(Nc2cnc3cnn([C@@H](C)c4cccnc4F)c3n2)n[nH]1 recorded_value=8.52
compound=C[C@@H](c1cccnc1)n1ncc2ncc(Nc3cc(C4COC4)[nH]n3)nc21 recorded_value=8.19
compound=c1nc2cnn(CC3CCOCC3)c2nc1Nc1cc(C2CC2)[nH]n1 recorded_value=9.30
compound=Fc1cccc(Cn2ncc3ncc(Nc4cc(C5COC5)[nH]n4)nc32)c1 recorded_value=8.10
compound=Fc1ccc(Cn2ncc3ncc(Nc4cc(C5COC5)[nH]n4)nc32)cc1 recorded_value=7.80
compound="CC(C)c1cc(Nc2cnc3cnn(C[C@@H]4CCOC4)c3n2)n[nH]1 (single isomer, unassigned)" recorded_value=9.30
compound=Cc1cc(Nc2cnc3c(Cl)nn([C@@H](C)c4cccnc4F)c3n2)n[nH]1 recorded_value=8.25
compound="CC(C)c1cc(Nc2cnc3cnn(C[C@H]4CCCOC4)c3n2)n[nH]1 (single isomer, unassigned)" recorded_value=9.22
compound=c1cncc(Cn2ncc3ncc(Nc4cc(C5COC5)[nH]n4)nc32)c1 recorded_value=7.97
compound="CC[C@@H]([C@H](C)O)n1ncc2ncc(Nc3cc(C(C)C)[nH]n3)nc21 (single isomer, unassigned)" recorded_value=8.64
compound=c1nc2cnn(CC3CCOCC3)c2nc1Nc1cc(C2COC2)[nH]n1 recorded_value=7.95
compound=C[C@H](C1CCOCC1)n1ncc2ncc(Nc3cc(C4COC4)[nH]n3)nc21 recorded_value=7.67
compound=O[C@H]1CC[C@H](n2ncc3ncc(Nc4cc(C5COC5)[nH]n4)nc32)CC1 recorded_value=8.46
compound=C[C@@H](c1cccnc1F)n1ncc2ncc(Nc3cc(C#N)[nH]n3)nc21 recorded_value=8.06
compound=Cc1cc(Nc2cnc3c(Cl)nn([C@@H](C)c4cccnc4)c3n2)n[nH]1 recorded_value=7.02
compound=Cc1nn(Cc2cccnc2)c2nc(Nc3cc(C(C)C)[nH]n3)cnc12 recorded_value=8.89
compound=Cc1cc(Nc2cnc3cnn(Cc4cccnc4)c3n2)n[nH]1 recorded_value=7.11
compound=C[C@@H](c1ccccc1)n1ncc2ncc(Nc3cc(C4COC4)[nH]n3)nc21 recorded_value=8.64
compound=C[C@@H](c1ccccn1)n1ncc2ncc(Nc3cc(C#N)[nH]n3)nc21 recorded_value=7.12
compound=Fc1ccccc1Cn1ncc2ncc(Nc3cc(C4COC4)[nH]n3)nc21 recorded_value=8.28
compound=CC(C)c1cc(Nc2cnc3cnn(C[C@@H](C)CO)c3n2)n[nH]1 recorded_value=8.10
compound=C[C@@H](c1ccccn1)n1ncc2ncc(Nc3cc(C4COC4)[nH]n3)nc21 recorded_value=8.70
compound="C[C@@H](c1cc(Nc2cnc3cnn(CC4CCOCC4)c3n2)n[nH]1)C(F)F (single isomer, unassigned)" recorded_value=8.27
compound=Cc1cc(Nc2cnc3cnn([C@@H](C)C4CCOCC4)c3n2)n[nH]1 recorded_value=7.59
compound=Fc1cncc(Cn2ncc3ncc(Nc4cc(C5COC5)[nH]n4)nc32)c1 recorded_value=7.35
compound=CC(C)c1cc(Nc2cnc3cnn([C@@H](C)c4cccnc4)c3n2)n[nH]1 recorded_value=9.70
compound=c1nc2cnn(C[C@H]3[C@@H]4COC[C@@H]43)c2nc1Nc1cc(C2COC2)[nH]n1 recorded_value=8.07
compound=Fc1ccc(Cn2ncc3ncc(Nc4cc(C5COC5)[nH]n4)nc32)cn1 recorded_value=7.88
compound=Cc1cc(Nc2cnc3cnn([C@@H](C)c4cccnc4Cl)c3n2)n[nH]1 recorded_value=8.38
compound=C[C@@H](c1ccccc1F)n1ncc2ncc(Nc3cc(C4COC4)[nH]n3)nc21 recorded_value=9.70
